molecular target: Nociceptin receptor (Homo sapiens, UniProt P41146); experiment: Displacement of [125I]Tyr14-NC/OFQ from human ORL1 receptor
Sequence (P41146 whole entry): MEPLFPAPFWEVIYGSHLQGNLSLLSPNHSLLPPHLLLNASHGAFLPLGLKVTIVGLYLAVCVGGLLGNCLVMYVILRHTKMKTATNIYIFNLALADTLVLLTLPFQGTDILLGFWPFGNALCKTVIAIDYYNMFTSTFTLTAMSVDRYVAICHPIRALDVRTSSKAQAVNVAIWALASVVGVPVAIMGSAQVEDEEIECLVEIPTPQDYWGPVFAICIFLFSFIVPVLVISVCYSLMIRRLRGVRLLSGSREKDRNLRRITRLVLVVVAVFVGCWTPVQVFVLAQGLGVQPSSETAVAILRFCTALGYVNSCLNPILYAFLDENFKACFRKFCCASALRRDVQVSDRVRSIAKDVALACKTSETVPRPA
Kindly state pIC50 for each of the entries shown.
Answers are plain numbers, as −log10 of the molar value.

For each of the items listed, what is its pIC50?
1. CCN1CCN(c2cc3[nH]c(S[C@]4(C)CC[C@@H](c5nnnn5C)CC4)nc3cc2Cl)CC1
2. CCN1CCN(c2cc3[nH]c(S[C@]4(C)CC[C@@H](c5nnco5)CC4)nc3cc2Cl)CC1

Solution:
8.13
8.96

Go through the list and state pIC50 for each entry.
1. CCN1CCN(c2cc3[nH]c(S[C@]4(C)CC[C@H](NC(=O)OC)CC4)nc3cc2Cl)CC1
2. CCN1CCN(c2cc3[nH]c(S[C@]4(C)CC[C@@H](S(C)(=O)=O)CC4)nc3cc2Cl)CC1
3. CCN1CCN(c2cc3[nH]c(SC(C)(C)C)nc3cc2Cl)CC1

Solution:
[8.02, 8.16, 7.66]

====

biological target: Mu-type opioid receptor (Homo sapiens, UniProt P35372); experiment: Displacement of [3H]diprenorphin from human cloned mu opioid receptor expressed in CHO cells
Sequence (P35372 whole entry): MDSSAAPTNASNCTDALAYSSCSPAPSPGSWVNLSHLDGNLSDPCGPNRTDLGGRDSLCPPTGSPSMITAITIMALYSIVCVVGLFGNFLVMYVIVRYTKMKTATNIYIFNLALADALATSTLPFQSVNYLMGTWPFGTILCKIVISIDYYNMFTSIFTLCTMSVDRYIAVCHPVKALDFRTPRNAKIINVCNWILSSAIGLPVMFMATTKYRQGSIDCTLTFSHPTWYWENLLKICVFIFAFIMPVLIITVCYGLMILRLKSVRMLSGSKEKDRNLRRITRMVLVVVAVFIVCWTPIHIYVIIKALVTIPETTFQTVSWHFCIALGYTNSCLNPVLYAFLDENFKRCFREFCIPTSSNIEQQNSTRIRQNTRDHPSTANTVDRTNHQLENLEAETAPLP
Property Name: IC50 (nM)
Numbers only, in nM.

Problem: Item under review: CCN1CCN(c2cc3[nH]c(S[C@]4(C)CC[C@@H](N(C)C(C)=O)CC4)nc3cc2Cl)CC1 . Reported IC50?
Solution: 840

====

Assay read-out IC50; system under study: Voltage-gated inwardly rectifying potassium channel KCNH2 (Homo sapiens, UniProt Q12809).
Sequence (Q12809 whole entry): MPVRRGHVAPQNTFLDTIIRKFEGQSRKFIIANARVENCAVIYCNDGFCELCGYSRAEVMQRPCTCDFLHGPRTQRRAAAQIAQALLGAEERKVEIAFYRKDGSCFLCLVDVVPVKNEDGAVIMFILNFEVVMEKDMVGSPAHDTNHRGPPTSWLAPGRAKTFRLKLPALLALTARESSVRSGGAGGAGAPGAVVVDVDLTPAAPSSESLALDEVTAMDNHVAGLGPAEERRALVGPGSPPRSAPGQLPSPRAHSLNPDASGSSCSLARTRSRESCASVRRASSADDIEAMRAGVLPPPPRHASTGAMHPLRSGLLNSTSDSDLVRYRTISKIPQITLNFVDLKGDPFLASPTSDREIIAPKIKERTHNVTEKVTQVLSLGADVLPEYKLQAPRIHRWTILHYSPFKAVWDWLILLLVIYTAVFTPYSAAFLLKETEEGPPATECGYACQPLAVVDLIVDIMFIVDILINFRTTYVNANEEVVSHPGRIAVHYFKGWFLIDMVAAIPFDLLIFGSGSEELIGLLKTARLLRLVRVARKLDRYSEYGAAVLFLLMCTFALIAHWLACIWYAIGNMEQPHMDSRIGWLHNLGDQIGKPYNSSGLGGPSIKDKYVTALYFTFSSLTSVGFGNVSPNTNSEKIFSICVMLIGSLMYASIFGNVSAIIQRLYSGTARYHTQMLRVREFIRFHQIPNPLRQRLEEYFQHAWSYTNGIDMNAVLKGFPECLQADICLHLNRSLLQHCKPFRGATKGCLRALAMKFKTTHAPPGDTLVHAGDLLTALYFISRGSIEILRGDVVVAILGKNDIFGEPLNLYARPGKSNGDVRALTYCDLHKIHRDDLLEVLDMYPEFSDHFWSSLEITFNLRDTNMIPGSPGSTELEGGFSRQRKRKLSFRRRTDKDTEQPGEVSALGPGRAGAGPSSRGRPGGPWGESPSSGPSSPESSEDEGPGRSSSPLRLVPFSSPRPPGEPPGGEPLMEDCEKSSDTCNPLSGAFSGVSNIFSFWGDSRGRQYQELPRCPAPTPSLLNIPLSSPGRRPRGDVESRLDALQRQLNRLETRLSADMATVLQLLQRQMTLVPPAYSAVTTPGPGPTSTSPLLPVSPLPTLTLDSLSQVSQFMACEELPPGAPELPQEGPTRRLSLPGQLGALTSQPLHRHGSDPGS

C[C@@H]1CN(CC(F)F)CCN1c1cc2[nH]c(SC(C)(C)C)nc2cc1Cl
> 10 µM

For every record below, what is its IC50?
1. CCN1CCN(c2cc3[nH]c(S[C@]4(C)CC[C@@H](N5CCCC5=O)CC4)nc3cc2Cl)CC1
2. CCN1CCN(c2cc3[nH]c(S[C@]4(C)CC[C@@H](NS(C)(=O)=O)CC4)nc3cc2Cl)CC1
3. CCN1CCN(c2cc3[nH]c(S[C@]4(C)CC[C@@H](NC(=O)OC)CC4)nc3cc2Cl)CC1
4. CCN1CCN(c2cc3[nH]c(S[C@]4(C)CC[C@@H](C(=O)NC)CC4)nc3cc2Cl)CC1
5. CC(=O)CN1CCN(c2cc3[nH]c(SC(C)(C)C)nc3cc2Cl)C(C)C1 (racemic)
6. CCN1CCN(c2cc3[nH]c(S[C@]4(C)CC[C@@H](S(C)(=O)=O)CC4)nc3cc2Cl)CC1

Solution:
1: > 10 µM; 2: > 10 µM; 3: 3.5 µM; 4: > 10 µM; 5: > 10 µM; 6: > 10 µM

====

Consider the following compounds; for each one, report its pIC50.
target: Nociceptin receptor (Homo sapiens); experiment: Displacement of [125I]Tyr14-NC/OFQ from human ORL1 receptor
Give bare numbers, as −log10 of the molar value.

// batch mode: one pIC50 value per listed entry
1. CCN1CCN(c2cc3[nH]c(SC(C)(C)CCNC(=O)OC)nc3cc2Cl)CC1
2. CCN1CCN(c2cc3[nH]c(S[C@]4(C)CC[C@@H](c5nnn(C)n5)CC4)nc3cc2Cl)CC1
3. C[C@@H]1CN(CC(F)(F)F)CCN1c1cc2[nH]c(SC(C)(C)C)nc2cc1Cl
4. C[C@@H]1CN(CC(F)F)CCN1c1cc2[nH]c(SC(C)(C)C)nc2cc1Cl
5. C[C@@H]1CN(CC#N)CCN1c1cc2[nH]c(SC(C)(C)C)nc2cc1Cl

Solution:
[7.68, 8.66, 6.20, 7.64, 7.21]

====

assay: Lipophilicity, log D at pH 7.4 by shake-flask method; format: physicochemical; conditions: buffer
I'd be grateful if you could share measured logD for these entries.
Give bare numbers.

Field: example entries. Status: answers known.
CCN1CCN(c2cc3[nH]c(S[C@]4(C)CC[C@@H](NS(C)(=O)=O)CC4)nc3cc2Cl)CC1
2.5
CCN1CCN(c2cc3[nH]c(S[C@]4(C)CC[C@@H](NC(C)=O)CC4)nc3cc2Cl)CC1
2.5
CCN1CCN(c2cc3[nH]c(S[C@]4(C)CC[C@@H](c5nc(C)no5)CC4)nc3cc2Cl)CC1
3.8
CCN1CCN(c2cc3[nH]c(S[C@]4(C)CC[C@@H](c5nnn(C)n5)CC4)nc3cc2Cl)CC1
3.1
CCN1CCN(c2cc3[nH]c(S[C@]4(C)CC[C@@H](N(C)C(C)=O)CC4)nc3cc2Cl)CC1
2.7
CCN1CCN(c2cc3[nH]c(S[C@]4(C)CC[C@@H](c5nnnn5C)CC4)nc3cc2Cl)CC1
2.3
CCN1CCN(c2cc3[nH]c(S[C@]4(C)CC[C@@H](N5CCCC5=O)CC4)nc3cc2Cl)CC1
2.9

Problem: Looking for the measured logD of CCN1CCN(c2cc3[nH]c(S[C@]4(C)CC[C@@H](NC(=O)OC)CC4)nc3cc2Cl)CC1 , can you help?
Solution: 3.4

====

target: UniProtKB P41146; assay: Antagonist activity at ORL1 receptor expressed in CHO cells assessed as inhibition of NC/OFQ-stimulated [35S]GTPgammaS binding; format: functional, cell-based
Could you please report measured pIC50 for the items listed next?
One number for each entry, as −log10 of the molar value.

CCN1CCN(c2cc3[nH]c(S[C@]4(C)CC[C@@H](NS(C)(=O)=O)CC4)nc3cc2Cl)CC1
8.74
CCN1CCN(c2cc3[nH]c(S[C@]4(C)CC[C@@H](c5nnc(C)o5)CC4)nc3cc2Cl)CC1
8.15
CCN1CCN(c2cc3[nH]c(S[C@]4(C)CC[C@@H](c5nc(C)no5)CC4)nc3cc2Cl)CC1
9.04

The following compounds each have a reported value; give each one's pIC50.
1. CCN1CCN(c2cc3[nH]c(S[C@]4(C)CC[C@@H](c5nnn(C)n5)CC4)nc3cc2Cl)CC1
2. CCN1CCN(c2cc3[nH]c(S[C@]4(C)CC[C@@H](c5nnco5)CC4)nc3cc2Cl)CC1
3. CCN1CCN(c2cc3[nH]c(S[C@]4(C)CC[C@@H](NC(C)=O)CC4)nc3cc2Cl)CC1

Solution:
1: 9.05; 2: 9.23; 3: 8.96

Below is a list of compounds. For each, state its recorded pIC50.
1. CCN1CCN(c2cc3[nH]c(SC(C)(C)C)nc3cc2Cl)[C@H](C)C1
2. CCN1CCN(c2cc3[nH]c(SC4(C)CCC(NC(=O)OC)C4)nc3cc2Cl)CC1 (racemic)
3. CCN1CCN(c2cc3[nH]c(S[C@]4(C)CC[C@@H](N(C)C(C)=O)CC4)nc3cc2Cl)CC1
4. CCN1CCN(c2cc3[nH]c(S[C@]4(C)CC[C@@H](S(C)(=O)=O)CC4)nc3cc2Cl)CC1
5. CCN1CCN(c2cc3[nH]c(SC(C)(C)CCNC(=O)OC)nc3cc2Cl)CC1
6. CCN1CCN(c2cc3[nH]c(S[C@]4(C)CC[C@@H](c5nnnn5C)CC4)nc3cc2Cl)CC1
7. CCN1CCN(c2cc3[nH]c(S[C@]4(C)CC[C@H](NC(=O)OC)CC4)nc3cc2Cl)CC1
8. CCN1CCN(c2cc3[nH]c(S[C@]4(C)CC[C@@H](N5CCCC5=O)CC4)nc3cc2Cl)CC1

Solution:
1. 8.54
2. 7.34
3. 8.89
4. 8.40
5. 8.07
6. 8.43
7. 8.68
8. 9.26

====

molecular target: Nociceptin receptor (Homo sapiens, UniProt P41146); assay: Displacement of [125I]Tyr14-NC/OFQ from human ORL1 receptor
Please provide measured IC50 for the entries that follow.
Numbers only, in nM.

Completed entries (count: 5):
CCN1CCN(c2cc3[nH]c(S[C@]4(C)CC[C@@H](NC(C)=O)CC4)nc3cc2Cl)CC1
1.9
CCN1CCN(c2cc3[nH]c(S[C@]4(C)CC[C@@H](N(C)C(C)=O)CC4)nc3cc2Cl)CC1
0.81
CCN1CCN(c2cc3[nH]c(S[C@]4(C)CC[C@@H](N5CCCC5=O)CC4)nc3cc2Cl)CC1
1.4
CCOC(=O)N1CCC(C)(Sc2nc3cc(Cl)c(N4CCN(CC)CC4)cc3[nH]2)CC1
4.3
CCN1CCN(c2cc3[nH]c(SC(C)(C)C)nc3cc2Cl)[C@H](C)C1
9.2

Provide reported IC50 for each item, in the same order as listed.
1. CCN1CCN(c2cc3[nH]c(S[C@]4(C)CC[C@@H](NC(=O)OC)CC4)nc3cc2Cl)CC1
2. CCN1CCN(c2cc3[nH]c(S[C@]4(C)CC[C@@H](NS(C)(=O)=O)CC4)nc3cc2Cl)CC1
3. CCN1CCN(c2cc3[nH]c(S[C@]4(C)CC[C@@H](c5nc(C)no5)CC4)nc3cc2Cl)CC1
4. C[C@@H]1CN(CCC#N)CCN1c1cc2[nH]c(SC(C)(C)C)nc2cc1Cl
5. CCN1CCN(c2cc3[nH]c(S[C@]4(C)CC[C@@H](c5nnc(C)o5)CC4)nc3cc2Cl)CC1
6. CCN1CCN(c2cc3[nH]c(S[C@]4(C)CC[C@@H](C(=O)NC)CC4)nc3cc2Cl)CC1

Solution:
[2.4, 2.1, 1.7, 27, 1.8, 1]
